Every entry's value here was drawn from patent US20260258115A1.

Below: a set of entries, each annotated with reported pKd.
Molecular target: RSV prefusion F (preF), DS-Cav1 (Respiratory Syncytial Virus)
Experiment: BLI, IgG on anti-human IgG sensor, 100 nM antigen
pKd: −log10 of the molar value.
Property Label: pKd

>>> data_value("ADI-36671 (antibody, V domains shown) VH: EVQLLESGGGLVKPGGSLRLSCAASGFTFSGYYMTWIRQAPEKGLEWVSYISGGSTYTNYADSVRGRFTISRDNARNSLYLQMNSLRAEDTAVYYCARDGGYGIGPLYWGQGSLVTVSS VL: QPVLTQPPSVSGAPGQRVTISCTGSSSNIGAPFDVHWYQQLPGTAPKPLIYGNSNRPSGVPDRFSGSKSGTSASLAITGLQAEDEADYYCQSYDSSLGGYVFGTGTKLTVL")
9.14
>>> data_value("ADI-41224 (antibody, V domains shown) VH: EVQLVETGGGLVQPGRSLRLSCTASGFTFGDYAMNWVRQAPGKGLEWIGIIRTKTYGGTTEYAASVKGRFTISRDDSKGIAYLQMNSLKTEDTGVYYCTMPVLNMDVWGQGTTVTVSS VL: QPVLTQPHSVSESPGKTVTISCTRNIGNIASNYVQWYQQRPGSSPTTVIYEDNQRPSGVPDRFSGSIDISSNSASLTISGLKTEDEADYYCQSYDSNNPWVFGGGTQLTVL")
9.28
>>> data_value("ADI-41146 (antibody, V domains shown) VH: QVQLVQSGAEVKKPGESLKISCKGSGHSFATFWIGWVRQVPGNGLELMGIINLGDSDTKYSPSFQGQVTISADESIGTAYLQWSSLKASDTAMYYCARVSLPHYYYYMDVWGKGTTVTVSS VL: DIVMTQSPSSVSASVGDRVTITCRASQGISTWLAWYRQKPGKAPELLIYAASRLQSGVPSRFSGSGSGTDFTLTISSLQPEDFATYYCQQANSFLGAFGPGTKLEIK")
8.35
